- ASSAY_INFO: blockers of RIG-like receptor reporter activation – cell-based, Sendai virus stimulus, luciferase, 10K MLSCN set, TLR/RLR signaling modifier project, primary screen (AID 602276);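 further: firefly luciferase from ISG56 promoter only with Renilla not read in this screen; 0% = Sendai virus plus DMSO and 100% = medium plus DMSO without virus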
- REPORTED_CONDITIONS: HEK293 RL24 IRF3 luciferase reporter, at 10 µM, stronger effect = higher value
Catalogue of inhibition readings, one per entry.
READOUT_KIND: inhibition (%)

>>> val("COc1ccccc1-c1cc(C(=O)Nc2cc(C)nn2-c2ccccc2)no1")
-1.99
>>> val("COc1ccccc1N1CCN(c2cc(N3CCCC3)nc(C)n2)CC1")
3.33
>>> val("COC(=O)/C=c1\\sc2ncnn2c1=O")
18.3
>>> val("Cc1ccc(-c2[nH]nc3c2C(c2ccc(OC(=O)N4CCOCC4)cc2)C(C#N)=C(N)O3)cc1 (stereo not given)")
4.48
>>> val("O=C(NCC1CCCO1)c1cc(-c2ccncc2)nc2ccc(S(=O)(=O)N3CCOCC3)cc12 (stereo not given)")
10.6

----------
- ASSAY_INFO: reduction of polyQ htt aggregates in cells – imaging, exon1htt(103Q)mCFP cells, high-content imaging, primary screen (AID 483);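 further: compound exposure lasted 3 days before fixation; percent of the per-plate median nuclei count of sample wells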
- REPORTED_CONDITIONS: exon1htt(103Q)mCFP cell line, aggregate imaging, at 2 µM; measured here: cell count, toxicity
READOUT_KIND: nuclei count (%)

>>> val("O=C(Nc1ccc2oc(-c3ccncc3)nc2c1)c1cccs1")
103
>>> val("CC(C)OC(=O)CSc1nnc(-c2cccnc2)n1Cc1ccccc1")
88.7
>>> val("Cc1nn(-c2ccc(F)cc2)c(C)c1NS(=O)(=O)c1ccc(Cl)cc1")
89.1
>>> val("Cn1c(COc2ccccc2)nnc1SCC(=O)Nc1ccc(N2CCOCC2)c(Cl)c1")
102
>>> val("CCOc1ccc(S(=O)(=O)Nc2cccc(Cl)c2)cc1")
78.4
>>> val("CC(C)c1nc(N2CCN(C(=O)c3ccco3)CC2)c2c3c(sc2n1)CCCC3")
94.5
>>> val("COc1ccc(CCN2C(=O)C3C4C=CC(C4)C3C2=O)cc1OC (stereo unspecified)")
105
>>> val("CCOc1ccc(S(=O)(=O)Nc2ccc(Cl)cn2)c(C)c1C")
87.4
>>> val("COc1cc(OC)cc(C(=O)N2CCN(C(=O)c3ccc(OC)c(OC)c3)CC2)c1")
126
>>> val("FC(F)(F)c1ccc(Sc2nnc(-c3cccs3)n2CC2CCCO2)nc1 (stereo unspecified)")
83.2
>>> val("Cn1c(=O)cc(OCCCC(=O)N2CCCCC2)c2ccccc21")
96.2

----------
Catalogue of nuclei count readings, one per entry.
- ASSAY_INFO: endothelial E-selectin expression blockers – imaging, HUVEC, immunofluorescence, MLSMR starter and 10KST1 sets, primary screen (AID 487);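 further: 100% = median nuclei count of all wells on the same plate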
- REPORTED_CONDITIONS: HUVEC TNFalpha-induced E-selectin immunofluorescence imaging, at 2 µM; measured here: cell number, toxicity
READOUT_KIND: nuclei count

>>> val("COc1cc(C2=NOC(C(=O)NCc3ccc(F)cc3)C2)cc(OC)c1OC (stereo unspecified)")
"103%"
>>> val("CCOC(=O)c1sc(NC(=O)COC(=O)Cn2cnc3ccccc32)c(C(=O)OCC)c1C")
"115%"
>>> val("CC(C)C(CO)NC(=O)CC(=O)NC(CO)C(C)C (stereo unspecified)")
"35.5%"
>>> val("C=CCNc1oc(-c2cccc3ccccc23)nc1C#N")
"97.4%"
>>> val("CSc1c(CC(=O)NCCO)n(C)c2ccccc12")
"105%"
>>> val("CCOc1ccc(CCNc2nc3c(c(=O)n(C)c(=O)n3C)n2CC)cc1OCC")
"119%"

----------
- ASSAY_INFO: blockers of RIG-like receptor reporter activation – cell-based, Sendai virus stimulus, luciferase, 10K MLSCN set, TLR/RLR signaling modifier project, primary screen (AID 602276);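 further: firefly luciferase from ISG56 promoter only with Renilla not read in this screen; 0% = Sendai virus plus DMSO and 100% = medium plus DMSO without virus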
- REPORTED_CONDITIONS: HEK293 RL24 IRF3 luciferase reporter, at 10 µM, stronger effect = higher value
READOUT_KIND: inhibition (%)

>>> val("CCn1nnnc1SCC(=O)N1c2ccccc2CCc2ccccc21")
1.39
>>> val("CCn1c(SCC(=O)Nc2ccc3c(c2)OCO3)nnc1-c1cnccn1")
15.5
>>> val("CC1Oc2ccccc2N(CC(=O)NCc2cccs2)C1=O (stereo unspecified)")
-0.51
>>> val("CCCn1c2c(c(O)c(C(=O)Nc3ccc(C)cn3)c1=O)CCCC2")
6.86
>>> val("COC(=O)CN1C(=O)C(O)(CC(=O)c2ccc(C)cc2)c2cc(Br)ccc21 (stereo unspecified)")
4.14
>>> val("Cc1nc2nc(Cc3ccccc3)[nH]n2c(=O)c1Cc1ccccc1")
9.12
>>> val("Cc1ccc(C)c(-c2nc3ccc(N)cc3[nH]2)c1")
15.4
>>> val("COC(=O)c1[nH]c2cc(OC)ccc2c1NC(=O)CCN1CCCCC1")
-3.43
>>> val("Cc1ccc2cc(C#N)c(N3CCCC3)nc2c1C")
13.3
>>> val("CC(=O)Nc1ccc(NC(=O)C(C)Oc2ccccc2F)cc1 (stereo unspecified)")
9.2
>>> val("Cc1cc(C)nc(SCc2nnc(SCC(=O)Nc3ncc(C)s3)n2Cc2ccco2)n1")
8.75
>>> val("CCCOc1ccc(/C(O)=C2/C(=O)C(=O)N(CCCOC)C2c2ccncc2)cc1 (stereo unspecified)")
13.1
>>> val("COc1cc(C2C(C(=O)c3ccc(C)o3)=C(O)C(=O)N2c2cc(C)on2)cc(Br)c1O (stereo unspecified)")
13.3
>>> val("CC(=O)N1C(=O)C2(C(C#N)=C(N)Oc3cc(C)oc(=O)c32)c2ccccc21 (stereo unspecified)")
-9.7
>>> val("Cc1cc(C)n2nc(SCC(=O)N(C)Cc3ccccc3)nc2n1")
-13.5
>>> val("CC(C)Oc1ccc(-c2nn(-c3ccccc3)cc2/C=c2\\sc3ncnn3c2=O)cc1")
-16.4
>>> val("CCc1ccccc1NC(=O)C(C#N)Cc1cccnc1 (stereo unspecified)")
-6.51
>>> val("CCOc1ccccc1N1CCN(S(=O)(=O)c2cccc3nsnc23)CC1")
22.8
>>> val("Cc1ccc(S(=O)(=O)NCCC(=O)OCn2nnc3ccccc3c2=O)cc1")
15.2
>>> val("Cc1ccc(S(=O)(=O)N2CCOCC2)cc1C(=O)Nc1ccccn1")
7.52
>>> val("Cc1cccc(N(CC(=O)N2CCCC2)S(=O)(=O)c2ccccc2)c1C")
-11.4
>>> val("COc1cccc(CC(=O)Nn2c(C)nc3ccccc3c2=O)c1")
-2.22
>>> val("COc1ccccc1-n1c(SCC(=O)NC(C)(C)C)nnc1-c1ccco1")
10.4
>>> val("COc1ccccc1CNC(=O)C(C)NS(=O)(=O)c1ccccc1 (stereo unspecified)")
-0.773
>>> val("Cc1cc(C)c2c(n1)nn1c(N3CCN(c4ccccc4C)CC3)cc(C)nc21")
-4.5
>>> val("O=S1(=O)C=CC(Nc2cccc(Cl)c2)C1 (stereo unspecified)")
22.9
>>> val("CCCN(CCC)CCNS(=O)(=O)c1ccc2c(c1)oc(=O)n2C")
9.38
>>> val("CCC1CCCCN1S(=O)(=O)c1ccc(C(=O)Nc2nnc(-c3ccccc3Cl)o2)cc1 (stereo unspecified)")
18.8
>>> val("Cc1ccc(NC(=O)CNc2cccc(C)c2C)c(C)c1")
5.56
>>> val("Cc1ccc(C)c(-n2nnnc2SCC(=O)NCCC2=CCCCC2)c1")
17.6
>>> val("CS(=O)(=O)N1CCN(C(=O)c2ccc(-c3ccccc3)cc2)CC1")
18.4
>>> val("Cc1ccc(CNC(=O)C2CCN(S(=O)(=O)c3cccs3)CC2)o1")
7.81
>>> val("CCOC(=O)Cc1csc(NC(=O)CSc2nnc(C(C)C)n2CC)n1")
18.4
>>> val("C/C(=C(\\C#N)C(=O)NCCCN1CCOCC1)N(C)C")
1.58
>>> val("COCCn1nnnc1C(C(C)C)N(Cc1cccnc1)Cc1ccccc1Cl (stereo unspecified)")
9.31
>>> val("Cc1cc(C(=O)Nc2ccc(S(=O)(=O)Nc3onc(C)c3C)cc2)cs1")
5.43
>>> val("Cc1ccc(-c2nc(N)n(C(=O)c3cccnc3)n2)cc1")
0.795
>>> val("Cn1c(=O)[nH]c(=O)c2c1nc(NCCCn1ccnc1)n2Cc1ccccc1")
-9.45
>>> val("Cc1nnc(SCCCn2c(N3CCCCC3)nc3c2c(=O)[nH]c(=O)n3C)s1")
8.32
>>> val("CCNc1ccc(S(=O)(=O)C(F)(F)F)cc1NC(=O)C12CCC(CC1)C2")
-90
>>> val("O=C(Nc1ccc(CN2CCOCC2)cc1)c1cc2ccccc2oc1=O")
0.662
>>> val("Nc1nc(CSCc2ccccc2)nc(N2CCOCC2)n1")
-22.6
>>> val("O=C(Nc1cccc(Cl)c1)N1CCN(c2ncccn2)CC1")
-23.1
>>> val("Cc1nnc(NC(=O)C2CCCO2)s1 (stereo unspecified)")
6.24
>>> val("Cc1cc(NC(=O)C(C)(C)C)no1")
16.1
>>> val("CC(=O)c1c(C)[nH]c(C(=O)Nc2ccc3c(c2)OCCO3)c1C")
-15.9
